Target: T1, 4H4001-bA
T1 chain: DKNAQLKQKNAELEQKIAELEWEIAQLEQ
Assay: two-hybrid library CCNG1;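 further: natural log of median RNA to DNA barcode read ratio; higher means stronger binding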
interaction score vs -0.4: at or above is MET, below is NOT MET.

Binder: DKNAQLKQENAELKQEIAELEWKIAQLKQ [4H3782-bA]
Category: MET
//
Binder: DKNAQLEQEIAELKQKNAELEWEIAQLEQ [4H3185-bA]
Category: NOT MET
//
Binder: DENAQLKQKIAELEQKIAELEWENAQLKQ [4H1828-bA]
Category: NOT MET
//
Binder: DKIAQLKQEIAELEQKNAELEWEIAQLKQ [4H2610-bA]
Category: MET

Query binder follows.
Could you tell me if the measured interaction score of DKIAQLKQEIAELEQEIAELKWKNAQLKQ [4H2576-bA] reaches -0.4 or more? MET

Just for reference, paper PMC10397247 is where these values come from.
